Biological target: Lysine-specific demethylase 4A (Homo sapiens)
Sequence (O75164 whole entry): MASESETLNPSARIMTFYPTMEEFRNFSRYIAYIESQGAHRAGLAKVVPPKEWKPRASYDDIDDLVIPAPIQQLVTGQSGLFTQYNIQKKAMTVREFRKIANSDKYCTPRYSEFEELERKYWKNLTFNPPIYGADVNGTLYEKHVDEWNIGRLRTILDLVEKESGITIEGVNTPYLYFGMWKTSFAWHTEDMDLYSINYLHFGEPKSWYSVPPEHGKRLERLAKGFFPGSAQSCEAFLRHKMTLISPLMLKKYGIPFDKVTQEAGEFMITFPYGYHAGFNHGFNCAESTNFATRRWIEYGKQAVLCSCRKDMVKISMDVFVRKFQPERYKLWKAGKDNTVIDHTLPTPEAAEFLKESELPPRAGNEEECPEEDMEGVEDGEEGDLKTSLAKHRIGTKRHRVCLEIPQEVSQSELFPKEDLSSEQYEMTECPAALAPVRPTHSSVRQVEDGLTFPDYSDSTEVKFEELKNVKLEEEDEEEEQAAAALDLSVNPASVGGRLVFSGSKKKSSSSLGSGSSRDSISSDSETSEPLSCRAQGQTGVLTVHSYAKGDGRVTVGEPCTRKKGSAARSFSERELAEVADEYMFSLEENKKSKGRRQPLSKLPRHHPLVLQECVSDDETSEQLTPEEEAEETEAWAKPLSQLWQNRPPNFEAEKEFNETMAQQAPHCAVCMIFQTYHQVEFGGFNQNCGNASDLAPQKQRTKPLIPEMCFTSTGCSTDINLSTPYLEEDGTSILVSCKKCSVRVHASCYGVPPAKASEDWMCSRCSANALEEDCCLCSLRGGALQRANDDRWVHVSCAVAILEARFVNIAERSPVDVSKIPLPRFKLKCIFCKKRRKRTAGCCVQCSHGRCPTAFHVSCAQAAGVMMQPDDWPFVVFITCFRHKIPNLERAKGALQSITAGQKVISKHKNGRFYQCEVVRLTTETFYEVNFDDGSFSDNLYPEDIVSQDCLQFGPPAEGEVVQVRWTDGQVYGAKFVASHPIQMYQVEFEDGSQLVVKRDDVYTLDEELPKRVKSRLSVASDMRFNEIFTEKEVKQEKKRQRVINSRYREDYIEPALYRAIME
# reported IC50; entries follow
API: value field is a number in µM; no unit string.

chemical structure: O=C(O)C(=O)N[C@H](Cc1ccc(OS(=O)(=O)c2ccc(Br)cc2)cc1)C(=O)O
endpoint label: IC50
experimental value: 12

Now turn to the next compound.
Problem: Query (compound): `O=C(O)C(=O)N[C@H](Cc1ccc(OCC(=O)c2ccc(N3CCCC3)cc2)cc1)C(=O)O` ; field requested: IC50
Result: 13

---

Test: Inhibition of JMJD2E by FDH coupled assay
# reported IC50; entries follow
API: value field is a number in µM; no unit string.

Answered cases to consult:
chemical structure: CC(C)(C)C(=O)COc1ccc(C[C@@H](NC(=O)C(=O)O)C(=O)O)cc1
experimental value: 185
--
chemical structure: O=C(O)C(=O)N[C@H](Cc1ccc(OCc2ccccc2)cc1)C(=O)O
experimental value: 37.1
--
chemical structure: O=C(O)C(=O)N[C@H](Cc1ccc(OCCCN2C(=O)c3ccccc3C2=O)cc1)C(=O)O
experimental value: 326
--
chemical structure: O=C(O)C(=O)N[C@H](Cc1ccc(OCC(=O)c2ccc(N3CCCC3)cc2)cc1)C(=O)O
experimental value: 14.8
--
chemical structure: O=C(O)C(=O)N[C@H](Cc1ccc(OS(=O)(=O)c2ccc(Br)cc2)cc1)C(=O)O
experimental value: 5.4
--
chemical structure: O=C(O)C(=O)N[C@H](Cc1ccc(OCc2ccccc2[N+](=O)[O-])cc1)C(=O)O
experimental value: 14.7

Now turn to the next compound.
Problem: Query (compound): `Cc1noc(C)c1S(=O)(=O)Oc1ccc(C[C@@H](NC(=O)C(=O)O)C(=O)O)cc1` ; field requested: IC50
Result: 82.9

---

Test: Inhibition of JMJD2E by FDH coupled assay
endpoint label: IC50 (µM)
API: value field is a number in µM; no unit string.

chemical structure: O=C(O)C(=O)N[C@H](Cc1ccc(OS(=O)(=O)c2ccc(F)cc2)cc1)C(=O)O
unit label: µM
IC50: 11.7
//
chemical structure: O=C(O)C(=O)N[C@H](Cc1ccc(OCc2ccccc2F)cc1)C(=O)O
unit label: µM
IC50: 16.6
//
chemical structure: CC(C)(C)c1ccc(S(=O)(=O)Oc2ccc(C[C@@H](NC(=O)C(=O)O)C(=O)O)cc2)cc1
unit label: µM
IC50: 8.6
//
chemical structure: O=C(O)C(=O)N[C@H](Cc1ccc(OS(=O)(=O)c2ccccc2)cc1)C(=O)O
unit label: µM
IC50: 14.7

Problem: Query (molecule): `O=C(O)C(=O)N[C@H](Cc1ccc(OC(=O)c2ccco2)cc1)C(=O)O` ; field requested: IC50
Result: 20.1

---

Test: Binding to JMJD2E by nondenaturing ESI-MS, ratio of JMJD2E-inhibitor complex to free JMJD2E
endpoint label: Ratio
Answer field: number only, no words.

chemical structure: O=C(O)C(=O)N[C@H](Cc1ccc(OCc2ccccc2)cc1)C(=O)O
Ratio: 1.7
--
chemical structure: O=C(O)C(=O)N[C@H](Cc1ccc(OCC(=O)c2ccc(N3CCCC3)cc2)cc1)C(=O)O
Ratio: 2
--
chemical structure: O=C(O)C(=O)N[C@H](Cc1ccc(OC(=O)c2ccco2)cc1)C(=O)O
Ratio: 3.5
--
chemical structure: O=C(O)C(=O)N[C@H](Cc1ccc(OCc2ccccc2F)cc1)C(=O)O
Ratio: 3.6
--
chemical structure: O=C(O)C(=O)N[C@H](Cc1ccc(OS(=O)(=O)c2ccccc2)cc1)C(=O)O
Ratio: 5.7

Problem: Query (compound): `O=C(O)C(=O)N[C@H](Cc1ccc(OCCCN2C(=O)c3ccccc3C2=O)cc1)C(=O)O` ; field requested: Ratio
Result: 0.9

Problem: Query (compound): `Cc1noc(C)c1S(=O)(=O)Oc1ccc(C[C@@H](NC(=O)C(=O)O)C(=O)O)cc1` ; field requested: Ratio
Result: 1

Problem: Query (compound): `O=C(O)C(=O)N[C@H](Cc1ccc(OCc2ccccc2[N+](=O)[O-])cc1)C(=O)O` ; field requested: Ratio
Result: 3.1

Problem: Query (compound): `CC(C)(C)C(=O)COc1ccc(C[C@@H](NC(=O)C(=O)O)C(=O)O)cc1` ; field requested: Ratio
Result: 0.9
